Task for the reader: assign each of the following molecules its reported melting point.

Some solved cases for reference:
[[record]]
molecule = "CN(CC(=O)N(C)c1ccc(N/C(=C2\\C(=O)Nc3ccccc32)c2ccccc2)cc1)Cc1ccccc1"
obs_value = "195 to 197 °C"

[[record]]
molecule = "CN(C)C(=O)CN(c1ccc(N/C(=C2\\C(=O)Nc3ccc([N+](=O)[O-])cc32)c2ccccc2)cc1)S(=O)(=O)Cc1ccccc1"
obs_value = "159 to 161 °C"

[[record]]
molecule = "CN(C)C(=O)CCNCc1cccc(N/C(=C2\\C(=O)Nc3ccc([N+](=O)[O-])cc32)c2ccccc2)c1"
obs_value = "177 to 179 °C"

[[record]]
molecule = "CN1CCN(Cc2cccc(N/C(=C3\\C(=O)Nc4ccc([N+](=O)[O-])cc43)c3ccccc3)c2)CC1"
obs_value = "256 to 258 °C"

[[record]]
molecule = "CC(C)S(=O)(=O)N(CC(=O)N(C)C)c1ccc(N/C(=C2\\C(=O)Nc3ccccc32)c2ccccc2)cc1"
obs_value = "146 to 148 °C"

[[record]]
molecule = "CC(=O)NC(c1ccc(N/C(=C2\\C(=O)Nc3ccc([N+](=O)[O-])cc32)c2ccccc2)cc1)N(C)C(=O)OC(C)(C)C (stereo not shown)"
obs_value = "225 to 227 °C (dec.)"


Recorded melting point (molecule CCC(=O)N(CCN(C)C)c1ccc(N/C(=C2\C(=O)Nc3ccccc32)c2ccccc2)cc1 ): 272 to 274 °C
